biological target: TRβ (Homo sapiens, UniProt P10828); construct: expressed in transfected cells; host or cells: HEK293; experiment: TR reporter-gene assay (Gal4 DBD hybrid, luciferase), TRβ; assay type: cell-based; conditions: class symbols
Sequence (P10828 217-461 limits assumed): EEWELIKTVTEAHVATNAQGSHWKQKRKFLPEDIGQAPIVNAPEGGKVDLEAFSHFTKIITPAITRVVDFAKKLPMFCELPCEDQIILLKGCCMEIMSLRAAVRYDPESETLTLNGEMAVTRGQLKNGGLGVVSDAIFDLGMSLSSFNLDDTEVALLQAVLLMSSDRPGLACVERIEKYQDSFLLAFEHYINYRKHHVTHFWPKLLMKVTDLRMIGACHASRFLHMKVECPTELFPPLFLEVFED
Measured Endpoint: T3-SI (selectivity index, EC50 (TRα)/EC50 (TRβ))

Worked examples follow.
CONC(=O)Cc1cc(Cl)c(Cc2ccc(O)c(C(C)C)c2F)c(Cl)c1 [Compound 208] : ++ (3× < T3-SI ≤ 30×)
CC(C)c1c(O)ccc(Cc2c(Cl)cc(CCC(=O)O)c(F)c2Cl)c1F : ++ (3× < T3-SI ≤ 30×)
CC(C)c1cc(Cc2c(Cl)cc(CNCC(=O)O)cc2Cl)ccc1O : + (T3-SI ≤ 3×)
CC(C)c1c(O)ccc(Cc2c(Cl)cc(NCC(=O)O)cc2Cl)c1F : ++ (3× < T3-SI ≤ 30×)
Cc1cc(CS(=O)(=O)CC(=O)O)cc(Cl)c1Cc1ccc(O)c(C(C)C)c1 : ++ (3× < T3-SI ≤ 30×)
CNC(=O)C(F)(F)Oc1cc(Cl)c(Cc2ccc(O)c(C(C)C)c2)c(Cl)c1 : + (T3-SI ≤ 3×)
Cc1c(F)c(NCC(=O)O)cc(Cl)c1Cc1ccc(O)c(C(C)C)c1 : ++ (3× < T3-SI ≤ 30×)
C=C(Cc1cc(Cl)c(Cc2ccc(O)c(C(C)C)c2F)c(Cl)c1)C(=O)O : ++ (3× < T3-SI ≤ 30×)
C/C(=C\c1cc(C)c(Cc2ccc(O)c(C(C)C)c2F)c(Cl)c1)C(=O)O : + (T3-SI ≤ 3×)
CC(c1ccc(F)cc1)c1c(O)ccc(Cc2c(Cl)cc(CCC(=O)O)cc2Cl)c1F (stereo not drawn) : + (T3-SI ≤ 3×)

// query T3-SI (selectivity index, EC50 (TRα)/EC50 (TRβ)) value for entry Cc1c(F)c(SCC(=O)O)cc(Cl)c1Cc1ccc(O)c(C(C)C)c1
++ (3× < T3-SI ≤ 30×)

// query T3-SI (selectivity index, EC50 (TRα)/EC50 (TRβ)) value for entry CC(C)c1cc(Cc2c(Cl)cc(CSCC(=O)O)cc2Cl)ccc1O
++ (3× < T3-SI ≤ 30×)

// query T3-SI (selectivity index, EC50 (TRα)/EC50 (TRβ)) value for entry C/C(=C\c1cc(Cl)c(Cc2ccc(O)c(C(C)C)c2)c(Cl)c1)C(=O)O
++ (3× < T3-SI ≤ 30×)

---

Target: TRα (Homo sapiens, UniProt P10827)
Construct: expressed in transfected cells; host or cells: HEK293
Sequence (P10827 1-410 isoform P10827-2): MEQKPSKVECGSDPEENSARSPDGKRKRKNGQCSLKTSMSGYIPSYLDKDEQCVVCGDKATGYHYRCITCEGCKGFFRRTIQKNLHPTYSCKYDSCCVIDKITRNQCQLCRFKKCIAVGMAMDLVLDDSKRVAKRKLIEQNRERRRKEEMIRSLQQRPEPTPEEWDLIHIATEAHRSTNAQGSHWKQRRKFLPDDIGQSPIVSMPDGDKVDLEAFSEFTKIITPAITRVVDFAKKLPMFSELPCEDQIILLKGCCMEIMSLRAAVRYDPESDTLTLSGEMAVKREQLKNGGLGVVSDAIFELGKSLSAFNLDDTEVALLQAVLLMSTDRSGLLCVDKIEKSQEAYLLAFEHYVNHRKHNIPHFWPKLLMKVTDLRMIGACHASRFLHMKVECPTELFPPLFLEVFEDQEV
Experiment: TR reporter-gene assay (Gal4 DBD hybrid, luciferase), TRα
Type: cell-based
Conditions: HEK293-derived reporter cells, 24 hr treatment; read-out: TRα EC50
pEC50: −log10 of the molar value.
Parameter pEC50: see the listing below.

Worked examples follow.
CC(C)c1c(O)ccc(Cc2c(Cl)cc(CC3NC(=O)NC3=O)cc2Cl)c1F (stereo not drawn) [Compound 206] : < 6.00
CNC(=O)CSCc1cc(C)c(Cc2ccc(O)c(C(C)C)c2)c(Cl)c1F [Compound 217] : < 6.00

// query pEC50 value for entry CC(c1ccc(F)cc1)c1c(O)ccc(Cc2c(Cl)cc(NCC(=O)O)cc2Cl)c1F (stereo not drawn) [Compound 50]
7.00 to 8.00

---

Molecular target: TRα (Homo sapiens, UniProt P10827)
Construct: expressed in transfected cells; host or cells: HEK293
Sequence (P10827 1-410 isoform P10827-2): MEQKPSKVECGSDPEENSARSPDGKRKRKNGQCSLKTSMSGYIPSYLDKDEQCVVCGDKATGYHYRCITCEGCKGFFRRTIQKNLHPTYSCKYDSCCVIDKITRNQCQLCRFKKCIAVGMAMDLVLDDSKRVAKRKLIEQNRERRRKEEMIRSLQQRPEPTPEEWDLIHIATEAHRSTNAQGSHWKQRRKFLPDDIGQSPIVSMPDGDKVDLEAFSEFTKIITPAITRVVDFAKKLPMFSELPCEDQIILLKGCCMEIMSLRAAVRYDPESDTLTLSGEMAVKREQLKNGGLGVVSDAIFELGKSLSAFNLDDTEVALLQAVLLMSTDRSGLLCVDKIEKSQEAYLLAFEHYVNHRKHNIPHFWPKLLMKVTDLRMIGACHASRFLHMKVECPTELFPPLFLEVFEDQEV
Assay: TR reporter-gene assay (Gal4 DBD hybrid, luciferase), TRα
Format: cell-based
Details: HEK293-derived reporter cells, 24 hr treatment; read-out: TRα EC50
Parameter EC50: see the listing below.

CC(C)c1cc(Cc2c(Cl)cc(CNCC(=O)O)c(F)c2Cl)ccc1O : 100 to 1000 nM
CC(C)c1c(O)ccc(Cc2c(Cl)cc(/C=C/C(=O)O)cc2Cl)c1F : < 10 nM
Cc1c(F)c(SCC(=O)O)cc(Cl)c1Cc1ccc(O)c(C(C)C)c1 : 100 to 1000 nM
C/C(=C\c1cc(Cl)c(Cc2ccc(O)c(C(C)C)c2F)c(Cl)c1)C(=O)O : < 10 nM
CC(C)c1cc(Cc2c(Cl)cc(CCCC(=O)O)cc2Cl)ccc1O : > 1000 nM

// query EC50 value for entry CC(C)c1c(O)ccc(Cc2c(Cl)cc(CNCC(=O)O)c(F)c2Cl)c1F
10 to 100 nM

// query EC50 value for entry Cc1cc(CCC(=O)O)cc(Cl)c1Cc1ccc(O)c(C(C)C)c1F
10 to 100 nM

// query EC50 value for entry Cc1c(F)c(NCC(=O)O)cc(Cl)c1Cc1ccc(O)c(C(C)C)c1
10 to 100 nM

// query EC50 value for entry CC(C)c1c(O)ccc(Cc2c(Cl)cc(NC(=O)C(=O)O)cc2Cl)c1F
100 to 1000 nM

// query EC50 value for entry CC(C)c1cc(Cc2c(Cl)cc([S+]([O-])CC(=O)O)cc2Cl)ccc1O (centres unmarked)
> 1000 nM

// query EC50 value for entry Cc1cc(CC(=O)O)cc(C)c1Cc1ccc(O)c(C(C)c2ccc(F)cc2)c1 (centres unmarked)
100 to 1000 nM

---

Parameter pEC50: see the listing below.
target: TRβ (Homo sapiens, UniProt P10828); construct: expressed in transfected cells; host or cells: HEK293; test: TR reporter-gene assay (Gal4 DBD hybrid, luciferase), TRβ; type: cell-based; conditions: HEK293-derived reporter cells, 24 hr treatment; read-out: TRβ EC50
pEC50: −log10 of the molar value.

Cc1cc(CC(=O)O)cc(C)c1Cc1ccc(O)c(C(C)c2ccc(F)cc2)c1 (stereo not drawn) [Compound 2] : 7.00 to 8.00
Cc1cc(NCC(=O)O)cc(Cl)c1Cc1ccc(O)c(C(C)C)c1F [Compound 247] : 7.00 to 8.00
CC(C)c1c(O)ccc(Cc2c(Cl)cc(CC(=O)O)c(F)c2Cl)c1F [Compound 69] : > 8.00
Cc1cc(SCC(=O)O)c(F)c(Cl)c1Cc1ccc(O)c(C(C)C)c1 [Compound 225] : 6.00 to 7.00
CC(C)c1cc(Cc2c(Cl)cc(CC(N)C(=O)O)cc2Cl)ccc1O (stereo not drawn) [Compound 143] : 7.00 to 8.00
Cc1cc(/C=C/C(=O)O)cc(Cl)c1Cc1ccc(O)c(C(C)C)c1F [Compound 250] : 7.00 to 8.00
CC(C)c1cc(Cc2c(Cl)cc(CSCC(=O)O)cc2Cl)ccc1O [Compound 95] : 6.00 to 7.00
Cc1cc(C[S+]([O-])CC(=O)O)cc(Cl)c1Cc1ccc(O)c(C(C)C)c1 (stereo not drawn) [Compound 246] : < 6.00

Here's the next entry for you.
// query pEC50 value for entry CC(C)c1cc(Cc2c(Cl)cc(OCCCCC(=O)O)cc2Cl)ccc1O [Compound 26]
6.00 to 7.00

---

target: TRβ (Homo sapiens, UniProt P10828); construct: expressed in transfected cells; host or cells: HEK293; experiment: TR reporter-gene assay (Gal4 DBD hybrid, luciferase), TRβ; assay type: cell-based; details: class symbols
Measured Endpoint: T3-SI (selectivity index, EC50 (TRα)/EC50 (TRβ))

Worked examples follow.
CC(C)c1cc(Cc2c(Cl)cc(CC3NC(=O)NC3=O)cc2Cl)ccc1O (stereo not drawn) : + (T3-SI ≤ 3×)
CC(C)c1c(O)ccc(Cc2c(Cl)cc(/C=C/C(=O)O)cc2Cl)c1F : + (T3-SI ≤ 3×)
CC(C)c1c(O)ccc(Cc2c(Cl)cc(C(=O)O)cc2Cl)c1F : ++ (3× < T3-SI ≤ 30×)
CC(C)c1cc(Cc2c(Cl)cc(C=C(C(=O)O)C(=O)O)cc2Cl)ccc1O : + (T3-SI ≤ 3×)

Here's the next entry for you.
// query T3-SI (selectivity index, EC50 (TRα)/EC50 (TRβ)) value for entry Cc1cc(CC(=O)O)cc(C)c1Cc1ccc(O)c(C(C)c2ccc(F)cc2)c1 (stereo not drawn)
++ (3× < T3-SI ≤ 30×)

Cited source: patent US12528761B2
